system: MCF7; assay: NCI tumour cell line growth inhibition, 48 h
Activity calls are given as the source filed them. No stated cut-off is given here; in the data, active = GI50 up to about 1.1 µM and inactive = higher.
// GI50 lookup, one value per entry

Notebook: pull reported GI50 for MCF7, entry O=C1Oc2ccccc2C(=O)/C1=C/N1C(=O)/C(=C/c2ccc([N+](=O)[O-])cc2)SC1=S
35.6 µM (inactive)

// repeat for C/C(=N\NS(=O)(=O)c1ccc(C)cc1)c1ccccn1 and report
53.8 µM (inactive)

// repeat for OC(COC(c1ccccc1)(c1ccccc1)c1ccccc1)C(O)CC1SCCS1 (stereo unspecified) and report
21.3 µM (inactive)

// repeat for O=C(c1cccc2cc(O)ccc12)c1cn(CCN2CCOCC2)c2ccccc12 and report
25.5 µM (inactive)

// repeat for CCc1n[nH]c(=O)n1/N=C/c1ccc(C)cc1 and report
> 100 µM (inactive)

---

system: Malme-3M; experiment: NCI tumour cell line growth inhibition, 48 h
Calls of active or inactive are those of the source. Cut-off read from the data, not from the text of the source: active = GI50 up to about 1.1 µM and inactive = higher.
// GI50 lookup, one value per entry

>  <compound>
Cc1ccc(NC(Nc2ccc(C)cc2C)=C(/C=C(\Cl)[N+](=O)[O-])[N+](=O)[O-])c(C)c1

>  <testedTarget>
Malme-3M

>  <GI50>
3.09 µM (inactive)

$$$$
>  <compound>
OC1c2ccccc2C2C(O)c3ccccc3C12 (centres undefined)

>  <testedTarget>
Malme-3M

>  <GI50>
> 100 µM (inactive)

$$$$

Quick one: GI50 of Cc1cc(C)cc(Nc2nnc3n2S(=O)(=O)c2cc(C#N)c(Cl)cc2S3)c1 ?
1.13 µM (inactive)

// repeat for COc1cc2c(cc1OCCCOc1cc3c(cc1OC)C(=O)N1CCC[C@H]1C(=O)N3)N=C[C@@H]1CCCN1C2=O and report
10.9 µM (inactive)

// repeat for CCN1CC2(CO)CCC(OC)C34C5CC6C(OC)CC(O)(C5C6OC)C(O)(C(OC)C23)C14 (centres undefined) and report
> 375 µM (inactive)

---

test system: HCT-116; experiment: NCI tumour cell line growth inhibition, 48 h
Active and inactive are the calls of the source. Rule as the data show it: active = GI50 up to about 1.1 µM and inactive = higher.
measuredAttribute: GI50

>  <molecule>
CC(O)CN1c2ccccc2Sc2ccccc21 (stereo not drawn)

>  <GI50>
> 100 µM (inactive)

$$$$

Quick one: GI50 of CCSC1SC(c2ccccc2)(c2ccccc2)c2ccccc21 (stereo not drawn) ?
30.8 µM (inactive)

// repeat for Cc1c(Cl)c(C)c(Cl)c(O)c1Cl and report
18.2 µM (inactive)

---

test system: A549; experiment: NCI tumour cell line growth inhibition, 48 h
Calls of active or inactive are those of the source. Rule as the data show it: active = GI50 up to about 1.1 µM and inactive = higher.
measuredAttribute: GI50

Worked examples follow.
>  <compoundSmiles>
O=C(Nc1nc2ncn(CCNCCn3cnc4nc(NC(=O)c5ccccc5)[nH]c(=O)c43)c2c(=O)[nH]1)c1ccccc1

>  <testedTarget>
A549

>  <GI50>
> 100 µM (inactive)

$$$$
>  <compoundSmiles>
O=C1c2cccc(NCCNCCO)c2C(=O)c2cccc(NCCNCCO)c21

>  <testedTarget>
A549

>  <GI50>
1.56 µM (inactive)

$$$$
>  <compoundSmiles>
O=c1c2c3c(sc2nc2n1N=CN(c1ccccc1)C2)CCCC3

>  <testedTarget>
A549

>  <GI50>
> 100 µM (inactive)

$$$$
>  <compoundSmiles>
Oc1ccccc1/C=N/c1ccccc1/N=C/c1ccccc1O

>  <testedTarget>
A549

>  <GI50>
> 100 µM (inactive)

$$$$
>  <compoundSmiles>
Cn1c2c(cc(-c3ccccc3)c1=O)COc1ccccc1-2

>  <testedTarget>
A549

>  <GI50>
33.3 µM (inactive)

$$$$

Notebook: pull reported GI50 for A549, entry COC(=O)CCCc1nc2ccccc2nc1/N=N/c1ccccc1
29.9 µM (inactive)
